Reported pIC50 values for the following molecules.
- test_target: rat orexin-1 receptor (Rattus norvegicus (Rat))
- Sequence (P56718 whole entry): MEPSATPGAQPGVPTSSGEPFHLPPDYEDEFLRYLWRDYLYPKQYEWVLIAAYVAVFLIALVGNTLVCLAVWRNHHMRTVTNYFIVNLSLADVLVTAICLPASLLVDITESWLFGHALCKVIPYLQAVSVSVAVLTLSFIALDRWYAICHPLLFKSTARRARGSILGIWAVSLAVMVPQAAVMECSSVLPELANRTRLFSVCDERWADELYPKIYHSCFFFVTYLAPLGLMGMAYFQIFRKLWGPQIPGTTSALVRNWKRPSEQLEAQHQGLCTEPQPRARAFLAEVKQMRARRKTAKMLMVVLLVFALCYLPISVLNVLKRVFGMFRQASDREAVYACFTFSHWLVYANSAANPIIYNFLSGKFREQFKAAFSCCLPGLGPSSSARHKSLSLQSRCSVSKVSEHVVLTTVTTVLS
- experimental_protocol: FLIPR Ca2+ Flux Assay, CHO cells expressing rat orexin-1 receptor;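 also: concentration giving 50% inhibition of the agonist-induced calcium response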
- condition_details: 70 pM Ala-6,12 orexin-A agonist, read-out: hOX1R FLIPR IC50
pIC50: −log10 of the molar value.

Below, each entry is followed by its recorded pIC50 result.
molecule: C[C@@H]1CC[C@@H](Oc2cc(C#N)ccn2)CN1C(=O)c1cccc(F)c1-n1nccn1 [Example 6]
value_observed: < 5.00

molecule: C[C@@H]1CC[C@@H](Oc2cc(C#N)ccn2)CN1C(=O)c1cc(F)ccc1-c1ncccn1 [Example 35]
value_observed: 5.09

molecule: C[C@@H]1CC[C@@H](Oc2cc(C#N)ccn2)CN1C(=O)c1sccc1-n1nccn1 [Example 14]
value_observed: < 5.00

molecule: C[C@@H]1CC[C@@H](Oc2cc(C#N)ccn2)CN1C(=O)c1ccsc1-c1ncccn1 [Example 32]
value_observed: 5.17

molecule: C[C@@H]1CC[C@@H](Oc2cc(C#N)ccn2)CN1C(=O)c1ccsc1-n1nccn1 [Example 10]
value_observed: < 5.00

molecule: COc1ccc(C(=O)N2C[C@H](Oc3cc(C#N)ccn3)CC[C@H]2C)c(C2CC2)n1 [Example 20]
value_observed: < 5.00

For the molecule COc1ccc(C(=O)N2C[C@H](Oc3cc(C#N)ccn3)CC[C@H]2C)c(-n2nccn2)n1 [Example 17] , what pIC50 is on record?
< 5.00

For the molecule Cc1cccc(C(=O)N2C[C@H](Oc3cc(C#N)ccn3)CC[C@H]2C)c1-n1nccn1 [Example 5] , what pIC50 is on record?
5.63

----------
- test_target: OX1 receptor (hOX1) (Homo sapiens)
- experimental_protocol: radioligand binding assay, orexin-1 receptor (membranes from CHO cells)
- condition_details: CHO cell membranes, read-out: hOX1 hKi
measure: Ki (nM)
Give the value in nM but do not write nM after it.

Below, each entry is followed by its recorded Ki result.
compound: C[C@@H]1CC[C@@H](Oc2cc(C#N)ccn2)CN1C(=O)c1ccc(OC(F)F)cc1-n1nccn1
test_target: OX1 receptor (hOX1) (Homo sapiens)
measure: Ki
unit_descriptor: nM
value_observed: 23900
//
compound: C[C@@H]1CC[C@@H](Oc2cc(C#N)ccn2)CN1C(=O)c1cccc(F)c1-n1nccn1
test_target: OX1 receptor (hOX1) (Homo sapiens)
measure: Ki
unit_descriptor: nM
value_observed: 1900
//
compound: C[C@@H]1CC[C@@H](Oc2cc(C#N)ccn2)CN1C(=O)c1cn(C)nc1-n1nccn1
test_target: OX1 receptor (hOX1) (Homo sapiens)
measure: Ki
unit_descriptor: nM
value_observed: 5640
//
compound: C[C@@H]1CC[C@@H](Oc2cc(C#N)ccn2)CN1C(=O)c1cc(F)ccc1-c1ncccn1
test_target: OX1 receptor (hOX1) (Homo sapiens)
measure: Ki
unit_descriptor: nM
value_observed: 658

For the compound C[C@@H]1CC[C@@H](Oc2cc(C#N)ccn2)CN1C(=O)c1cc(Cl)ccc1-n1nccn1 , what Ki is on record?
5640

For the compound C[C@@H]1CC[C@@H](Oc2cc(C#N)ccn2)CN1C(=O)c1cccc(F)c1-c1ncccn1 , what Ki is on record?
1690

For the compound C[C@@H]1CC[C@@H](Oc2cc(C#N)ccn2)CN1C(=O)c1c(F)cccc1-c1ncccn1 , what Ki is on record?
930

For the compound Cc1ccc(C(=O)N2C[C@H](Oc3cc(C#N)ccn3)CC[C@H]2C)c(-n2nccn2)c1 , what Ki is on record?
1250

For the compound COc1ccc(C(=O)N2C[C@H](Oc3cc(C#N)ccn3)CC[C@H]2C)c(C2CC2)n1 , what Ki is on record?
12600

For the compound Cc1cccc(C(=O)N2C[C@H](Oc3cc(C#N)ccn3)CC[C@H]2C)c1-n1nccn1 , what Ki is on record?
669

For the compound COc1ccc(C(=O)N2C[C@H](Oc3cc(C#N)ccn3)CC[C@H]2C)c(Cl)n1 , what Ki is on record?
2820

For the compound C[C@@H]1CC[C@@H](Oc2cc(C#N)ccn2)CN1C(=O)c1ccc(C(F)(F)F)nc1-n1nccn1 , what Ki is on record?
9440

For the compound C[C@@H]1CC[C@@H](Oc2cc(C#N)ccn2)CN1C(=O)c1cc(Br)ccc1-n1nccn1 , what Ki is on record?
265

For the compound C[C@@H]1CC[C@@H](Oc2cc(C#N)ccn2)CN1C(=O)c1sccc1-n1nccn1 , what Ki is on record?
5340

----------
human orexin-2 receptor (Homo sapiens (Human), UniProt O43614): recorded Ki for assorted molecules
Sequence (O43614 whole entry): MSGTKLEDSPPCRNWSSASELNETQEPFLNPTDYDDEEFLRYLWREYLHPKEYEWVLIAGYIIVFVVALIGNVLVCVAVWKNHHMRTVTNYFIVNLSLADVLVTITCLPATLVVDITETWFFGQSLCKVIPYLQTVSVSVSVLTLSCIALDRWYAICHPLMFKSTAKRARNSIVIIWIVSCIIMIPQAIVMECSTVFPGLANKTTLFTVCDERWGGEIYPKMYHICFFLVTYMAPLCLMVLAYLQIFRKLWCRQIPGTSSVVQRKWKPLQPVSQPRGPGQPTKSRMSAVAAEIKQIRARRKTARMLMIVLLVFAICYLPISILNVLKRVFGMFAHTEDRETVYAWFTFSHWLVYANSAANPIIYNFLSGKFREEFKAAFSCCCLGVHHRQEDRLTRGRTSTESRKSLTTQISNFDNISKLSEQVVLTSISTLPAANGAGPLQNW

Below, each entry is followed by its recorded Ki result.
molecule: C[C@@H]1CC[C@@H](Oc2cc(C#N)ccn2)CN1C(=O)c1ccc(OCCO)cc1-n1nccn1 [Example 25]
measure: Ki
value_observed: 10.9 µM
//
molecule: C[C@@H]1CC[C@@H](Oc2cc(C#N)ccn2)CN1C(=O)c1c(F)cccc1-n1nccn1 [Example 22]
measure: Ki
value_observed: 0.0034 µM

Here is the next item to consider.
Identify the measured Ki of C[C@@H]1CC[C@@H](Oc2cc(C#N)ccn2)CN1C(=O)c1ccc(C(F)(F)F)nc1-n1nccn1 [Example 27] for human orexin-2 receptor (Homo sapiens (Human), UniProt O43614).
1.04 µM

----------
- test_target: human orexin-2 receptor (Homo sapiens (Human), UniProt O43614)
Mark yes (1) only for Ki values smaller than 9 nM; exact matches and larger values are no (0).

molecule: COc1ccc(C(=O)N2C[C@H](Oc3cc(C#N)ccn3)CC[C@H]2C)c(Cl)n1
group: no (0)
--
molecule: Cc1ccc(C(=O)N2C[C@H](Oc3cc(C#N)ccn3)CC[C@H]2C)c(-n2nccn2)n1
group: no (0)

State whether 9 nM exceeds Ki recorded for Cc1cccc(C(=O)N2C[C@H](Oc3cc(C#N)ccn3)CC[C@H]2C)c1-n1nccn1 .
yes (1)

State whether 9 nM exceeds Ki recorded for Cc1cccc(-n2nccn2)c1C(=O)N1C[C@H](Oc2cc(C#N)ccn2)CC[C@H]1C .
yes (1)

State whether 9 nM exceeds Ki recorded for C[C@@H]1CC[C@@H](Oc2cc(C#N)ccn2)CN1C(=O)c1cc(Cl)ccc1-n1nccn1 .
no (0)

State whether 9 nM exceeds Ki recorded for C[C@@H]1CC[C@@H](Oc2cc(C#N)ccn2)CN1C(=O)c1cccc(F)c1-c1ncccn1 .
no (0)

State whether 9 nM exceeds Ki recorded for C[C@@H]1CC[C@@H](Oc2cc(C#N)ccn2)CN1C(=O)c1ccc(F)cc1-n1nccn1 .
yes (1)

State whether 9 nM exceeds Ki recorded for COc1ccc(C(=O)N2C[C@H](Oc3cc(C#N)ccn3)CC[C@H]2C)c(C2CC2)n1 .
no (0)

State whether 9 nM exceeds Ki recorded for C[C@@H]1CC[C@@H](Oc2cc(C#N)ccn2)CN1C(=O)c1ccc(Cl)cc1-n1nccn1 [Example 7] .
yes (1)

State whether 9 nM exceeds Ki recorded for C[C@@H]1CC[C@@H](Oc2cc(C#N)ccn2)CN1C(=O)c1c(F)cccc1-c1ncccn1 .
yes (1)

State whether 9 nM exceeds Ki recorded for C[C@@H]1CC[C@@H](Oc2cc(C#N)ccn2)CN1C(=O)c1ccc(Cl)cc1-n1nccn1 [Example 29] .
yes (1)

State whether 9 nM exceeds Ki recorded for C[C@@H]1CC[C@@H](Oc2cc(C#N)ccn2)CN1C(=O)c1cc(F)ccc1-c1ncccn1 .
yes (1)

State whether 9 nM exceeds Ki recorded for C[C@@H]1CC[C@@H](Oc2cc(C#N)ccn2)CN1C(=O)c1cccc(F)c1-n1nccn1 .
yes (1)

State whether 9 nM exceeds Ki recorded for C[C@@H]1CC[C@@H](Oc2cc(C#N)ccn2)CN1C(=O)c1ccsc1-n1nccn1 .
yes (1)

State whether 9 nM exceeds Ki recorded for Cc1ccc(C(=O)N2C[C@H](Oc3cc(C#N)ccn3)CC[C@H]2C)c(-n2nccn2)c1 .
yes (1)

----------
Reported IC50 values for the following compounds.
- test_target: rat orexin-1 receptor (Rattus norvegicus (Rat))
- experimental_protocol: FLIPR Ca2+ Flux Assay, CHO cells expressing rat orexin-1 receptor;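 also: concentration giving 50% inhibition of the agonist-induced calcium response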
- condition_details: 70 pM Ala-6,12 orexin-A agonist, read-out: hOX1R FLIPR IC50
Give the value in µM but do not write µM after it.

Below, each entry is followed by its recorded IC50 result.
compound: C[C@@H]1CC[C@@H](Oc2cc(C#N)ccn2)CN1C(=O)c1ccc(Cl)cc1-n1nccn1 [Example 7]
IC50, µM: 3.84
--
compound: Cc1ccc(C(=O)N2C[C@H](Oc3cc(C#N)ccn3)CC[C@H]2C)c(-n2nccn2)c1 [Example 9]
IC50, µM: 7.15
--
compound: C[C@@H]1CC[C@@H](Oc2cc(C#N)ccn2)CN1C(=O)c1c(F)cccc1-n1nccn1 [Example 22]
IC50, µM: 5.75
--
compound: C[C@@H]1CC[C@@H](Oc2cc(C#N)ccn2)CN1C(=O)c1ccc(Cl)cc1-n1nccn1 [Example 29]
IC50, µM: 3.4

For the compound C[C@@H]1CC[C@@H](Oc2cc(C#N)ccn2)CN1C(=O)c1cc(Br)ccc1-n1nccn1 [Example 15] , what IC50 is on record?
1.04
